Catalogue of log10 of EC50, pseudovirus neutralization readings, one per entry.
Target: BK virus VP1 protein, genotype I (BK virus) (UniProt P03088)
Assay: cell-based or functional assay
Metric name: log10 of EC50, pseudovirus neutralization (log10 of the value in nM)

Binder: 1H10 (antibody, V domains shown) VH: QVHLVESGGDLVKPGGSLRLSCVASGFTFSDYYMNWIRMPPGKGLEWISYIDSSAGAIYYADSVKGRFTVSRDDAKNSLFLHMNNLRADDTAVYYCARERRDGHKIFDCWGPGTLVTVSS VL: DIVMTQSPDSLAVSLGERATINCKSSQNILYSSNNKNYLAWYQQKAGQPPKLLIFWSSTRESGVPDRFSGSGSGTDFTLTISSLQAEDVAVYYCQQYYSSPYNFGRGTTLEIK
Measured number: -1.16
--
Binder: 9G9 (antibody, V domains shown) VH: EVQLLESGGGLVQPGGSLRLSCAASGFTFHNYAMSWVRQAPGKGLEWVSGISGSGGTAYYADSVKGRFTISRDNSKNTLYLQMNSLRADDTALYYCAKDRFLEWVEGFDSWGQGTLVTVSS VL: DIQMTQSPSSLSASVGDRVTITCRASQSIGSFLIWYQQKPGKAPKLLIYAASSLQSGVPSRFSGSGSGTDFTLIISSLQPEDFATYYCQQSYNTPLTFGGGTKVEIK
Measured number: -2.33
--
Binder: 6H12 (antibody, V domains shown) VH: EVQLVESGGGLVQPGGSLRLSCAASGFTFSSYEMNWVRQAPGKGLEWVSYISSGGSSIKYADSVRGRFAFSRDNAENSVHLQMNSLRAEDTAVYYCARVGGSYYYSYAMDVWGQGTAVTVSS VL: DIQLTQSPSFLSASVGDRVTITCWASQDISSYLAWYQQKPGKAPKLLIYAASTLQSGVPSRFTGSGSGTEFTLTISSLQPEDFATYYCQQPHNSPFSFGPGTKVDVK
Measured number: -2.41
--
Binder: 2F7 (antibody, V domains shown) VH: QVQLVESGGGLVKPGGSLRLSCVASGFTFSDYYMNWIRLPPGRGLQWISYIDSSAGAIYYADSVKGRFTVSRDDAKNSLYLQMNSLRADDTAVYYCARERRDGHKIFDWWGQGTLVTVSS VL: DIVMTQSPDSLAVSLGERATINCKSSQNILYTSNNKNYLGWYQQKAGQPPKLLIYWSSTRNSGVPDRFSGSGSGTDFTLTISSLQAEDVAVYYCHQYYSSPYTFGQGTNLEIK
Measured number: -1.28
--
Binder: 2B9 (antibody, V domains shown) VH: EVQLLESGGGLAQPGKSLRLSCAASGFTFSGFAMSWVRQAPGKGLEWVSGISGSGDITYYADSVKGRFTISRDNSKSTLYLQMNSLGAEDTAVYYCAKDPYNWNHGVYGMDVWGQGTTVTVSS VL: DIQMTQSPSSLSASVGDRVTITCRASQSISSYLNWYQQKPGKAPKFLIYGASSLQSGVPSRFSGSGSGTDFTLTISSLQPEDFAAYYCQQSFNAPLTFGGGTKVEIK
Measured number: -1.49
--
Binder: 15C10 (antibody, V domains shown) VH: EVQLLESGGGLVQPGGSLRLSCAASGFTFSSFAMSWVRQAPGKGLEWVSGISASGGTTNYADSVKGRFTISRDNSKNTLYLQMSSLRAEDTAEYYCAKDRFLEWVEGFDPWGQGILVTVSP VL: DIQMTQSPSSLSASVGDRVTITCRASQSIGRFLIWYQQKPGKAPKLLLYATSSLQSGVPARFTGSGSGTDFTLTIGSLQPEDFATYYCQQSYITPLTFGGGTKVEIK
Measured number: -2.03
--
Binder: 11D12 (antibody, V domains shown) VH: EVQLVESGGGLVQPGGSLRLSCAASGFTFSSYEMNWVRQAPGKGLEWVSYISSGGSSIKYADSVRGRFTFSRDNAENSVFLQMNSLRGEDTAVYYCARVGGSYYYSYAMDVWGQGTAVTVSS VL: DIQLTQSPSFLSASVGDRVTITCWASQDISSYLAWYQQKPGKAPKLLIYAASTLQSGVPSRFSGSGSGTEFTLTISSLQPEDFATYYCQQPNNYPFSFGPGTKVDVK
Measured number: -1.96
--
Binder: 7A4 (antibody, V domains shown) VH: QVQLVESGGDLVKPGGSLRLSCVASGFTFSDYYMNWIRLPPGKGLEWISYIDSSAGAIYYADSVKGRFTVSRDDAKNSLFLHMNSLRADDTAVYYCVRERRDGHKIFDYWGPGTLVTVSS VL: DIVMTQSPDSLAVSLGERATINCKSSQNILYSSNNKNYLAWYQQKAGQPPKLLIFWSSIRESGVPDRFSGSGSGTDFTLTISSLQAEDVAVYYCQQYYSSPYNFGRGTTLEIK
Measured number: -2.04
--
Binder: 5A8 (antibody, V domains shown) VH: QVQLVESGGDLVKPGGSLRLSCVASGFTFSDYYMNWIRLPPGRGLEWISYIDSSAGAIYYADSVKGRFTVSRDDAKKSLFLYMNSLRADDTAVYYCARERRDGHKIFDYWGPGTLVTVSS VL: DIVMTQSPDSLAVSLGERATINCKSSQNILYSSNNKNYLAWYQQKAGQPPKLLIFWSSTRESGVPDRFSGSGSGTDFTLTISSLQAEDVAVYYCHQYYSSPYNFGRGTTLEIK
Measured number: -1.70
